system.under.test: GABARAP, O95166
Sequence (O95166 whole entry, the tested form may be a part): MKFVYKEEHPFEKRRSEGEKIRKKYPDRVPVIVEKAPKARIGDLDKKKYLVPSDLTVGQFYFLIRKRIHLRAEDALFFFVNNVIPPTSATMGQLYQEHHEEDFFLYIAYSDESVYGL
test.method.notes: median log2 fold change of GCK-ALFA target abundance (FLAG IP / Myc IP barcode read proportion) (log2 ratio); each designed protein is fused to an ALFA-tag nanobody in HEK293 cells to bring the named protein to FLAG-tagged glucokinase (GCK); Myc marks an untargeted standard; higher = target protein stabilised (more abundant)
condition.set: target protein: 3xFLAG-MCP-GCK-ALFA reporter; HEK293 landing pad (RPLP)
Over roughly 4,500 sequences, “median log2 fold change of GCK-ALFA target abundance (FLAG IP / Myc IP barcode read proportion)” has its median near 0.078; the lowest 2% begin near -0.6. Only a selection was taken, and the lowest values are over-represented in it overall.
Measured median log2 fold change of individual entries
// keep it numeric: no unit symbol after the value

binder | median log2 fold change
GBRAP_52_6009 (protein) MREELRERLEEALALVRAGRLEEARALVTELVESLDEEELELLIELLAEMAREAAPEDFDAVWTLAELVAEEMRRAGKDEVLADLLEARVAAALYEAEQR | -0.0383

Turning now to a further binder:
Inquiry: Using the record for GBRAP_14_3840 (protein) REEVRRLLLEAVERAVEEVRKFAPEEARERVEALREVLRRAVDEGLETGDLEEAERRLVEVAEAAVRELFADLPPEERGALVAVAVDELVEGFEELEERL , report its median log2 fold change.
Reply text: 0.0661
